Test system: human APOE RNA
Experiment: Activity in APOE C57BL/6NTac-Apoeem7250 knock-in mice, single ICV bolus, 4 weeks (Example 10)
Type: in vivo
Conditions: cortex; single ICV bolus 300 μg; 4 weeks post treatment; normalized to mouse Ppia
Strand notation (5' to 3'): a small letter for the sugar, then the base; units joined by * are phosphorothioate-linked, units joined directly phosphodiester-linked; [ ] holds rarer units or linkages, { } end groups; capitals alone tell only the bases. [ms] = mesyl phosphoramidate linkage; e = 2'-O-(2-methoxyethyl) (MOE); k = constrained ethyl (cEt); [5mC] = 5-methylcytosine; d = 2'-deoxy (DNA)
Simple rule here: APOE RNA (% control) Cortex less than 60 % control is Satisfied, otherwise Not satisfied.

For orientation, consider the following solved cases.
| Substance | Assigned Label |
| --- | --- |
| 1746799 (k[5mC]*dT[ms]kT*dG[ms]kG*dT[ms]dG[ms]dA[ms]dA[ms]dT*d[5mC]*dT*dT*dT*dA[ms]dT*kT*dA[ms]kA*kA; antisense) [Compound 1746799] | Satisfied |
| 1746806 (k[5mC]*kT*dT[ms]dG[ms]kG*dT[ms]dG[ms]dA[ms]dA[ms]dT*d[5mC]*dT*dT*dT*dA[ms]dT*dT[ms]kA*kA*kA; antisense) [Compound 1746806] | Not satisfied |
| 1693101: 6-10-4 MOE gapmer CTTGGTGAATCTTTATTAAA, linkages sssssozzzssssszssss (e[5mC]*eT*eT*eG*eG*eTdG[ms]dA[ms]dA[ms]dT*d[5mC]*dT*dT*dT*dA[ms]dT*eT*eA*eA*eA) [compound 1693101] | Satisfied |

Prompt: Lab note: APOE RNA (% control) Cortex threshold 60 % control. Does this substance come in strictly under it? 1785588 (k[5mC]*kT*kT*dG[ms]dG[ms]dT[ms]dG*dA*dA[ms]dT[ms]d[5mC]*dT*dT*dT*dA*dT*kT*kA*dA[ms]kA; antisense) [Compound 1785588]
Response: Satisfied
